# Experiment Description: soluble on expression in E. coli; label from the status in PepcDB or PDB records
Recorded Endpoint: soluble on expression in E. coli

The following sequences have reported results that may help.
Q: // query soluble on expression in E. coli value for entry MDAPRINKWLKPLSALYGVGVRLRNYLFDKNVLISNSFDIPIVCVGNITIGGTGKTPHVEYLIRLLHPRYRVAVVSRGYKRKTKGMIVATEGSTAWDIGDEPRQIKRKYPDLTVIVDADRSRAIGYLCDLAEEQRPQLIVLDDGFQHRKVKADLNIVLTDYNRILTKDYLLPAGRLREPAGSIQRADMVILTKCPDDLAPIDLRAAKRDLALYPHQKLFFSKFLYGQGLKPLFSDQSPSAEVRSALAIAGIASPKLFFREIRTRFPSGTDRIYPDHHEFTDREICLLIQDWHELHRKDANAIVVCTEKDAMRLALRQSSFPQEMQERFYYLPVEVKLMFDQEKVFVDRLLGVIQHKKLEHHHHHH
Ans: not soluble

Q: // query soluble on expression in E. coli value for entry MGSDKIHHHHHHMYKYKFTVFTPTYNRAHLLENLYNDLKAQTYDFNDFEWLIVDDGSSDSTKELVEKFISENKLNIRYIYKENGGKHTAINLGVKNADGELFFIVDSDDGLIKDSLEIANDEWDSLENKEGFSGVVGLCVYPSGDLIGTEMPEDKKICHFADLYFKYGVKGDKSIVFVTDELIKFPFPERKEVRFLPESVVWNEMSKYYKVICVNKPMIIRDYLDDGLTKNILSKNALRGRALEFLYLINQNTYPLSRYPYMWIKNYINLARYSLLSDSHYFGELRKVSDKLLYLALFPLGYYKYIGQRKLVSK
Ans: not soluble

Q: // query soluble on expression in E. coli value for entry MGSDKIHHHHHHMGIMENPLIKPAALENTHQDGPHPQAEEPYYLPFGDEVSIFTQCHRRHLAVMLKGPTGCGKTRFVEHMAWRMKRPLIIVSCHDDLTAADLVGRFLIRDNATIWQDGPLTRAVRVGAICYLDEVVEARQDAVVVIHPLTDYRRVLPIDKTGELIEATPGFQLVISYNPGYQHVTKDLKPSTRQRFVALDFDFPPPEREAEIVIHESGAQPAVAYDLVALGGRIRGLADRGLAEVPSTRLLVATARLIANGIPPRLACHVALVSPLSDDPALVAAMRDLVDATLLD
Ans: not soluble

Q: // query soluble on expression in E. coli value for entry MAHHHHHHMRQGRVRTESTVQRFAKTPIGEGFDLWDRDYLLGAMRLFLFKAETAPPFQVGPCMDATGEILVQLEELEDAREQFSIAAEKYLITQQQQLAKIMEIKALECERGPQAALEELTAFLKKETASTNATAVPAPITRAYAYQAELLLKTATPETPELFTEAVETAKLACNHAWDRVHMGYVVLGDALKASGCPDEARKAYSEAFETNRNCITALERHIEVLKEYIAESNDDMRIEALRKELLPLLESAISLHPRPTLIREKAFLLSETLGDAAALEFLDPLICNPPPEEADAAGNVGGRTVATLLKAKAAILADGGKMQEALEVAEAALKESPSDEEAKAIVAELRESL
Ans: soluble

Q: // query soluble on expression in E. coli value for entry MKVNKALTIAGSDSGGGAGIQADLKTFQELGVYGMTAITAITAQNTLGVQGVYPVSLEGITEQLNSIGTDLTPDAVKIGMLFSSEIIQIVAEYINKFGWNNIVLDPVMIAKGGASLLQQEAVQALKEYLLPVATVITPNVPEAEVLTGLEIHNIEDSKEAAKVLHELGAKYVLMKGGHAEYQGNEVIDLLFDGEKFIEFRSERIPSKQTHGSGCTFASAVTAGLAKGYSMEEAVQEAKRFISIAIEEPLHIGSGHGPTNHFAYKMNKAQV
Ans: not soluble

Q: // query soluble on expression in E. coli value for entry MAHHHHHHMADRADHYINQLNDAYALKVGGIYNHSTLASSNHNKAHTFGSMPHALIQMFEGDVVKAVEAYHKTFPEDDLYALVDFHNDVISDSLACLKAFKNKLKAVRIDTSKALIDKMFSEGEAEYGVTQNQVKRLREALDANGGKHVKITVSSGFNAKRIKEFEDENTPVDTYGVGASLLKI
Ans: soluble

Q: // query soluble on expression in E. coli value for entry MGSDKIHHHHHHMNITPKSIIGDIKKKNGNINRVIFTGCGASMADLYPGYYFISHESKHLLSSIMQANEFNYDTPKDVNENTIVITASLGGSTPESVEATKHARELGAHVVTLSHVPNSAIINEAEYSLVHGFEEDYAHKTEKMTLALQLAIEIVNQFEGYDYYADAQKAFEGLFNLINQEANMVAPAAEEFVTKYKDENTIYVLGSGASADVAYSTASFLFMEMQWISSPTIHSGEFFHGPFELALKDTPYLLFMSDGNTRHLDARAMAFLQRFDTKLTVIDAKDHGLASIASSNVIDYFNPMLITGVMRVYAEKLAEARQHPLTQRRYMWKLENY
Ans: not soluble

Q: // query soluble on expression in E. coli value for entry SANKGQQPPYLHLAELTASQFLDIWKHFDADGNGYIEGKELDNFFSQLEIARRGAGVDPSNAAFKGRMTEFMQKFDKNKDGRIEMSELAQILPTEENFLLCFRQFVGSSTEFMAAWRKYDTDRSGFIEANELKGFLSDLLKKANRHYDDQKLQEYTQTILKMFDLNGDGKLGLSEMARLLPVQENFLLKFQGVRLSAEQFNAIFTYYDKDGNGYIDEQELDALLKDLYEKNNKEVDSKSLTGYKQSIMALSDGGKLYRSELEIVLCRDPML
Ans: soluble

Q: // query soluble on expression in E. coli value for entry MSLEQASVTNDFSENKQGCIQHPWQGKKVGYIGDSITDPNCYGDNIKKYWDFLKEWLGITPFVYGISGRQWDDVPRQAEKLKKEHGGEVDAILVFMGTNDYNSSVPIGEWFTEQEEQVLSAHGEMKKMVTRKKRTPVMTQDTYRGRINIGITQLKKLFPDKQIVLLTPLHRSLANFGDKNVQPDESYQNGCGEYIDAYVQAIKEAGNIWGIPVIDFNAVTGMNPMVEEQLIYFYDAGYDRLHPDTKGQERMARTLMYQLLALPVAFEGHHHHHH
Ans: soluble

From here, focus on the item given below.
Q: // query soluble on expression in E. coli value for entry MGSDKIHHHHHHMNDINLLPLTSAYLDLILEWRNNPEVRRNMYTSHVISKAEHYAWFKKLESDNTKQCFIFVLNGVPSGFISFVDINLNSKSATWAFYSGNTSVRGIGSLMEVSALNYAFSTLGLHKLSCEVLEFNNMVVRFHEKYGFHVEGVFKKHHFSEGEYWDIYRLAIFNEEWARCKLEINLKKQSISPGSSYRENVFFTNENIIGFSALSGDCNQIHLNKQYAIKNGFDNNLVHGFLVGSVFSKVFGTRFPGDGCIYISQSLSFLSPVYPDDLLEASFVVLSKIGRKLVVETSITNLHSNKKVIDGVAELLISMDSQIGYLNQYL
Ans: not soluble
